# measured.on: PRS (prolyl-tRNA synthetase) protein, PRS portion of EPRS (Homo sapiens (Human))
# Sequence (P07814 1007-1512): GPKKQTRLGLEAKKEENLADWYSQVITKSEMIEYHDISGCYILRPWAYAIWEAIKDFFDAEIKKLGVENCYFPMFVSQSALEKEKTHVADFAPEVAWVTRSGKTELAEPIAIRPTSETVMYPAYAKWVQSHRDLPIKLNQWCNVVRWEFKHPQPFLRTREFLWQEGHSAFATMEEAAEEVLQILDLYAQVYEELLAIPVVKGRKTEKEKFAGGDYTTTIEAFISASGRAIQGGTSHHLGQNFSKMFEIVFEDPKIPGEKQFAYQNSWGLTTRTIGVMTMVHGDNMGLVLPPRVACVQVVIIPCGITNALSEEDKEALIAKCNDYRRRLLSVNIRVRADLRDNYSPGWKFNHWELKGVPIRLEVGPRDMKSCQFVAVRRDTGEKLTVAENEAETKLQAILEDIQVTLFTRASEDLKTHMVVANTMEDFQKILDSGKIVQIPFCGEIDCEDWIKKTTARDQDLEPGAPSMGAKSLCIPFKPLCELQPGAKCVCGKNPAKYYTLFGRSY
observed.property: IC50

> print(dat)
                            compound.smiles                               measured.on  observed.property  reported.measurement
1  CCCCn1cc(-c2cc(Cl)cc3ncn(CCC[C@H]4NCCC[C@@H]4O)c23)cn1  PRS (prolyl-tRNA synthetase) protein, PRS portion of EPRS (Homo sapiens (Human))               IC50         100 to 500 nM
2  O[C@H]1CCCN[C@@H]1/C=C/Cn1ncc2cc(Cl)cnc21  PRS (prolyl-tRNA synthetase) protein, PRS portion of EPRS (Homo sapiens (Human))               IC50              ≥ 500 nM
3  O[C@H]1CCCN[C@@H]1CCCn1nc(-c2cnn(C(F)F)c2)c2ccc(Cl)cc21  PRS (prolyl-tRNA synthetase) protein, PRS portion of EPRS (Homo sapiens (Human))               IC50              ≥ 500 nM
4  O[C@H]1CCCN[C@@H]1/C=C/Cn1ccc2c(Cl)ncnc21  PRS (prolyl-tRNA synthetase) protein, PRS portion of EPRS (Homo sapiens (Human))               IC50              ≥ 500 nM
5  O[C@H]1CCCN[C@@H]1CCCn1cnc2cc(Cl)cc(-c3ccon3)c21  PRS (prolyl-tRNA synthetase) protein, PRS portion of EPRS (Homo sapiens (Human))               IC50         100 to 500 nM
6     O[C@H]1CCCN[C@@H]1CCCn1cnc2ccc(F)cc21  PRS (prolyl-tRNA synthetase) protein, PRS portion of EPRS (Homo sapiens (Human))               IC50              ≥ 500 nM
7    O[C@H]1CCCN[C@@H]1CCCn1cnc2ccc(Br)cc21  PRS (prolyl-tRNA synthetase) protein, PRS portion of EPRS (Homo sapiens (Human))               IC50         100 to 500 nM
